molecular target: the molecule itself; test: negative-stain TEM; 0.02 mg/ml purified protein on glow-discharged carbon-coated copper grids, 2% uranyl acetate; single-point mutants taken directly after TEV cleavage of the 8×His tag
recordedMetric: binding result

hNINJ1 V82W (natural protein, human, UniProt Q92982 1-152, looked up, ninjurin-1 (NINJ1), human, UniProt Q92982, residues 1–152, point mutant; source: E. coli Rosetta2 (DE3), purified (DDM, Ni-NTA, TEV cleavage); not shown: 8×His, N-terminal, cleaved) MDSGTEEYELNGGLPPGTPGSPDASPARWGWRHGPINVNHYASKKSAAESMLDIALLMANASQLKAVVEQGPSFAFYVPLVWLISISLVLQIGVGVLLIFLVKYDLNNPAKHAKLDFLNNLATGLVFIIVVVNIFITAFGVQKPLMDMAPQQ    binds
hNINJ1 L121W (natural protein, human, UniProt Q92982 1-152, looked up, ninjurin-1 (NINJ1), human, UniProt Q92982, residues 1–152, point mutant; source: E. coli Rosetta2 (DE3), purified (DDM, Ni-NTA, TEV cleavage); not shown: 8×His, N-terminal, cleaved) MDSGTEEYELNGGLPPGTPGSPDASPARWGWRHGPINVNHYASKKSAAESMLDIALLMANASQLKAVVEQGPSFAFYVPLVVLISISLVLQIGVGVLLIFLVKYDLNNPAKHAKLDFLNNWATGLVFIIVVVNIFITAFGVQKPLMDMAPQQ    binds
hNINJ1 G95L (natural protein, human, UniProt Q92982 1-152, looked up, ninjurin-1 (NINJ1), human, UniProt Q92982, residues 1–152, point mutant; source: E. coli Rosetta2 (DE3), purified (DDM, Ni-NTA, TEV cleavage); not shown: 8×His, N-terminal, cleaved) MDSGTEEYELNGGLPPGTPGSPDASPARWGWRHGPINVNHYASKKSAAESMLDIALLMANASQLKAVVEQGPSFAFYVPLVVLISISLVLQIGVLVLLIFLVKYDLNNPAKHAKLDFLNNLATGLVFIIVVVNIFITAFGVQKPLMDMAPQQ    binds
